Test: Cmax in Sprague-Dawley rat brain at 2 mg/kg, po administered as single dose by LC-MS/MS analysis
Format: ADME, organism-based
Set-up: dose 2 mg/kg, route oral
observable: Cmax (ng/mL)
Please respond with the number in ng/mL and leave the unit unwritten.

Query: Look up Cmax: O=C(N[C@H]1CC[C@H](CCN2CCN(c3nsc4ccccc34)CC2)CC1)c1ccco1
Result: 52.8

---

Molecular target: 5-hydroxytryptamine receptor 2A (Homo sapiens, UniProt P28223)
Sequence (P28223 whole entry): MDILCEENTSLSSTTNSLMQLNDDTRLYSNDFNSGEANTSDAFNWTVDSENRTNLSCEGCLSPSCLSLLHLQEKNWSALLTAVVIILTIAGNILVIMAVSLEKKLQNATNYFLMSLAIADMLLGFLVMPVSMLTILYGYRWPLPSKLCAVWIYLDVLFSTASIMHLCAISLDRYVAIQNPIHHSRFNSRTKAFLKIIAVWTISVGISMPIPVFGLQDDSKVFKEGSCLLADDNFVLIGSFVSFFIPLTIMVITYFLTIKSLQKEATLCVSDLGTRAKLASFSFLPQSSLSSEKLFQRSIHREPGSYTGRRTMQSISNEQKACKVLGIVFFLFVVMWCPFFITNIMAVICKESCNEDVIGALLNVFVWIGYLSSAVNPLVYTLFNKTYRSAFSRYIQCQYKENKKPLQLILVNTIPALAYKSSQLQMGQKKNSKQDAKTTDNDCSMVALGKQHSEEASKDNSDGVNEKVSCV
Assay: Agonist activity at 5-HT2A receptor (unknown origin) expressed in CHOK1 cells co-expressing G-alpha 15 by Fluo-4 dye based FLIPR assay
observable: EC50

Query: Look up EC50: O=C(N[C@H]1CC[C@H](CCN2CCN(c3nsc4ccccc34)CC2)CC1)c1ccco1
Result: > 10 µM

---

Biological target: 5-hydroxytryptamine receptor 2A (Homo sapiens, UniProt P28223)
Assay: Displacement of [3H]ketanserin from recombinant human 5-HT2A receptor expressed in HEK293 cell membranes after 60 mins by scintillation counting method
observable: pKi
Bear in mind: pKi is minus log10 of a mol/L concentration; give just that figure.

// below: answered compounds
INSERT INTO measurements (compound_string, observable, endpoint_value) VALUES
  ('N[C@H]1CC[C@H](CCN2CCN(c3nsc4ccccc34)CC2)CC1', 'pKi', 9.68),
  ('COCC(=O)N[C@H]1CC[C@H](CCN2CCN(c3nsc4ccccc34)CC2)CC1', 'pKi', 9.62),
  ('CS(=O)(=O)N[C@H]1CC[C@H](CCN2CCN(c3nsc4ccccc34)CC2)CC1', 'pKi', 9.55),
  ('CCC(=O)N[C@H]1CC[C@H](CCN2CCN(c3nsc4ccccc34)CC2)CC1', 'pKi', 8.96),
  ('O=C(NC[C@H]1CC[C@H](CN2CCN(c3nsc4ccccc34)CC2)CC1)c1ccco1', 'pKi', 7.80),
  ('O=C(N[C@H]1CC[C@H](CCN2CCN(c3nsc4ccccc34)CC2)CC1)c1cccs1', 'pKi', 9.82),
  ('O=C(N[C@H]1CC[C@H](CCN2CCN(c3nsc4ccccc34)CC2)CC1)C(F)(F)F', 'pKi', 9.20),
  ('CC(C)N(C(=O)N[C@H]1CC[C@H](CCN2CCN(c3nsc4ccccc34)CC2)CC1)C(C)C', 'pKi', 9.42),
  ('CN([C@H]1CC[C@H](CCN2CCN(c3nsc4ccccc34)CC2)CC1)S(=O)(=O)c1cccs1', 'pKi', 8.92),
  ('CCOC(=O)N[C@H]1CC[C@H](CCN2CCN(c3nsc4ccccc34)CC2)CC1', 'pKi', 9.28);

Query: Look up pKi: O=C(N[C@H]1CC[C@@H](CCN2CCN(c3nsc4ccccc34)CC2)CC1)c1ccco1
Result: 9.72

Query: Now the compound O=C(N[C@H]1CC[C@H](CCN2CCN(c3nsc4ccccc34)CC2)CC1)c1ccco1
Result: 9.64

---

Assay: AUC (0 to t) in Sprague-Dawley rat plasma at 0.5 mg/kg, iv administered as single dose by LC-MS/MS analysis
Assay type: ADME, organism-based
observable: AUC(0-t) (ng·h/mL)
Please respond with the number in ng·h/mL and leave the unit unwritten.

Query: Look up AUC(0-t): O=C(N[C@H]1CC[C@H](CCN2CCN(c3nsc4ccccc34)CC2)CC1)c1ccco1
Result: 106
